# Assayed System: SHP2-C SH2;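 also: peptide library displayed on the E. coli surface as eCPX fusions, selected cells deep-sequenced, score is each peptide's frequency after selection divided by its frequency in the input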
# Procedure Text: SH2 binding enrichment of the phosphorylated peptide, bacterial display (enrichment ratio); higher = better substrate or ligand; peptides without Tyr show the background
Property Name: SH2 binding enrichment

Please review the entries below; each comes with its answer.
GKGGSYSKAEW [HLA-E_Y341] | 0.512
MSRNLYSGDFF [DDR2_Y736_YF] | 0.611
RAVLLYEYVGK [NATD1_Y45] | 1.11
EEAAGCAQESQ [CAMKV_Y491_Y491C] | 0.837
VIEQRYNETWL [SLC2A4_Y56_S55R] | 0.497

A. RRAKGYPIDLY [ITGB2_Y125]
B. IFHLSYHHNCE [PDE6B_Y227_L228H_YF]
-- ask So which one has the bigger SH2 binding enrichment here, A or B ? Pick one and reply with its label.
-- reply B
(B: 1.16, A: 0.627)

A. IQTDGYRAPEA [UHMK1_Y197]
B. DLVLQYLRVPL [F9_Y371_A366D]
-- ask So which one has the bigger SH2 binding enrichment here, A or B ? Pick one and reply with its label.
-- reply B
(B: 1.23, A: 0.727)

A. GSERDYTFDEL [EIF2S2_Y174_E177D_YF]
B. KRYRIYHLAIS [BRCA2_Y3009_T3013I]
C. RQRTAYFSLNT [CDH1_Y68_D72N]
-- ask hey, can you rank those sequences up there by SH2 binding enrichment? biggest number first please Please write the labels in the order that was asked for.
-- reply C, B, A

P. MSNVPYVMNRG [ACAT1_Y161]
Q. MPLTKYLKRIK [CNGB3_Y200_E199K]
-- ask Please choose the item with the lower SH2 binding enrichment value from this pair: P and Q Pick one and reply with its label.
-- reply P

a. TESALYGCTIL [MAP3K21_Y724_V728I]
b. DKEKWYPLGNS [PIK3C2G_Y1438]
c. CPTIHYNFMCN [TP53_Y234_T230P_YF]
-- ask Please order the records by their reported SH2 binding enrichment, lowest number first. Please write the labels in the order that was asked for.
-- reply a, b, c
(a: 0.625, b: 1.11, c: 1.97)

1. EKPAKYDDIKK [GAPDH_Y255]
2. PPAPRCHHSAV [LZTR1_Y119_Y119C]
3. SRDDYYETIAM [NPY1R_Y347_D346Y]
-- ask hey, can you rank those sequences up there by SH2 binding enrichment? biggest number first please Please write the labels in the order that was asked for.
-- reply 2, 1, 3
(2: 1.51, 1: 0.662, 3: 0.431)

1. YTGDIYSSSNL [LZTR1_Y141_N143S]
2. IGMIIYFARKA [VCAM1_Y718]
-- ask Please choose the item with the lower SH2 binding enrichment value from this pair: 1 and 2 Pick one and reply with its label.
-- reply 1

a. REVPVYTFSEP [FAM120B_Y368_D370Y_YF]
b. SVTCTYSPALD [TP53_Y126_N131D]
-- ask So which one has the bigger SH2 binding enrichment here, a or b ? Pick one and reply with its label.
-- reply a
(a: 0.8, b: 0.532)

----------
# Assayed System: Fes (UniProt P07332)
# Sequence (P07332 whole entry, looked up): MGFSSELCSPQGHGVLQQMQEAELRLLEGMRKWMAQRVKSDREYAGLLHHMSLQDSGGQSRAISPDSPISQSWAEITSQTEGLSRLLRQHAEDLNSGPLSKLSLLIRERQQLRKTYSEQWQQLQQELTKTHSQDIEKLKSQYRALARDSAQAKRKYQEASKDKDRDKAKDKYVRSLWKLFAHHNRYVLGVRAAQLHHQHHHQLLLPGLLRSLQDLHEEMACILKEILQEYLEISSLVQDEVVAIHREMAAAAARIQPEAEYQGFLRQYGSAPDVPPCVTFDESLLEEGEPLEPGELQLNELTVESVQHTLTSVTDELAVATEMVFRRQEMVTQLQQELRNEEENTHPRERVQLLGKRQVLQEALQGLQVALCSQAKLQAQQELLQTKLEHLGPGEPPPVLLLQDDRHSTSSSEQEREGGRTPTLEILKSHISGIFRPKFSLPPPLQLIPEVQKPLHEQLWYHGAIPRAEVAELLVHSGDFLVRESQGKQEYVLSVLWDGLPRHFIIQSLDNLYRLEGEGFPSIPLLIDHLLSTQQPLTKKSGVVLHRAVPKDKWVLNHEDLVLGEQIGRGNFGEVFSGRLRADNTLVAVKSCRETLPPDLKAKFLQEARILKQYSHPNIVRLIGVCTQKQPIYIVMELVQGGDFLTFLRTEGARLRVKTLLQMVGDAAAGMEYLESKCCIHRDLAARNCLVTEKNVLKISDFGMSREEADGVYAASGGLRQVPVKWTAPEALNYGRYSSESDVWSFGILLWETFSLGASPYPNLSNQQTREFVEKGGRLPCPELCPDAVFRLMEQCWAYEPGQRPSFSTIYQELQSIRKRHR
# Procedure Text: phosphorylation enrichment, bacterial display (enrichment ratio); higher = better substrate or ligand; peptides without Tyr show the background
Property Name: phosphorylation enrichment
// response body must contain only the number

DVLVEYQEEGR [GNS_Y416_G418E] | 1.21
NGQAVYAACQT [XDH_Y1092] | 0.706
WKGSWYSMRKM [FGB_Y475] | 1.11

-- ask Field request: phosphorylation enrichment | item: LHSEAYLKFIE [PBRM1_Y1610_YF]
-- reply 1.51

-- ask Subsequent entry: IRKTEYPFSSE [ATP2C1_Y452_A450T]
-- reply 0.837

-- ask Subsequent entry: SVTCTYSPALD [TP53_Y126_N131D]
-- reply 1.76
